Data origin: PubChem BioAssay (EPA / NIEHS)

- Experiment description: LTEA_HepaRG_LDH_cytotoxicity: Cytotoxicity Assessment in the Life Technologies and Expression Analysis (LTEA) Assay (AID 2283563)
- Description: LTEA_HepaRG is a cell based, multiplexed-readout assay that uses HepaRG, a human liver cell line, with measurements taken at 48 hours after chemical dosing on a 96-well plate.LTEA_HepaRG_LDH_cytotoxicity is one of 102 assay component(s) measured in the LTEA HepaRG cell culture assay. It is a marker of cell viability / cytotoxicity.Data from the assay component LTEA_HepaRG_LDH_cytotoxicity was analyzed into 1 endpoint. […]
Active and inactive are the calls of the source. The calls were made as follows: active = hit-call score of the fitted dose curve at least 0.9, where 1 is the maximum; inconclusive = response in the unintended direction; inactive = score below 0.9.
Answer with one of the outcomes 1 (yes) (active), 0 (no) (inactive)

Take a look at these entries with their results.
{"columns": ["Record smiles", "Answer label"],
 "data": [
  ["NS(=O)(=O)C(F)(F)C(F)(F)C(F)(F)C(F)(F)C(F)(F)C(F)(F)C(F)(F)C(F)(F)F", "1 (yes)"],
  ["CO/C=C(/C(=O)OC)c1ccccc1COc1cccc(C(F)(F)F)n1", "1 (yes)"],
  ["CCCCCCCCCC[N+](C)(C)CCCCCCCCCC", "1 (yes)"],
  ["CC(C)(c1ccccc1)c1ccc(O)cc1", "1 (yes)"]
]}

Test call, this compound: "C=CC(N)=O"
0 (no)

====

- Read-out: growth arrest and DNA damage 45 (GADD45A), GADD45A (gene 1647)
- Experiment description: LTEA_HepaRG_GADD45A: Life Technologies and Expression Analysis (LTEA) Assay for growth arrest and DNA damage 45 (GADD45A) using HepaRG (AID 2283458)
- Condition details: mRNA level, 48 h; actives raise or lower the signal
- Description: LTEA_HepaRG is a cell based, multiplexed-readout assay that uses HepaRG, a human liver cell line, with measurements taken at 48 hours after chemical dosing on a 96-well plate.LTEA_HepaRG_GADD45A is one of 102 assay component(s) measured in the LTEA HepaRG cell culture assay. It is a marker of Oxidative Stress.Data from the assay component LTEA_HepaRG_GADD45A was analyzed into 1 endpoint. […]
Activity calls are given as the source filed them. How the source made its calls: active means hit-call score of the fitted dose curve at least 0.9, where 1 is the maximum; inactive means score below 0.9.
Answer with one of the outcomes YES = active, NO = inactive

Test call, this compound: "O=C(N[C@H]1CN2CCC1CC2)c1cc2ccoc2cn1"
NO

====

- Experiment description: ACEA_ER_80hr: ACEA Biosciences xCELLigence Real-Time Cell Analysis on Estrogen Receptor Agonism for Proliferation (AID 2282667)
- Condition details: T47D proliferation, impedance (xCELLigence), 80 h
Inconclusive results are not listed. Calls of active or inactive are those of the source. The calls were made as follows: active = hit-call score of the fitted dose curve at least 0.9, where 1 is the maximum; inconclusive = response in the unintended direction; inactive = score below 0.9.
Answer with one of the outcomes class 1 (active), class 0 (inactive)

Take a look at these entries with their results.
{"columns": ["Compound", "Answer label"],
 "data": [
  ["Cc1ccccc1O", "class 0"],
  ["CO/C=C(/C(=O)OC)c1ccccc1COc1cccc(C(F)(F)F)n1", "class 1"]
]}

Test call, this compound: "C=CC(=O)NCNC(=O)C=C"
class 0

Test call, this compound: "NS(=O)(=O)C(F)(F)C(F)(F)C(F)(F)C(F)(F)C(F)(F)C(F)(F)C(F)(F)C(F)(F)F"
class 0

Test call, this compound: "N#Cc1ccc(N(CC(N)=O)CC(F)(F)F)cc1C(F)(F)F"
class 0

Test call, this compound: "CCOC(=O)C(O)(c1ccc(Cl)cc1)c1ccc(Cl)cc1"
class 0

Test call, this compound: "ClC1=C(Cl)[C@]2(Cl)[C@@H]3[C@@H]4C[C@@H]([C@H]5O[C@@H]45)[C@@H]3[C@@]1(Cl)C2(Cl)Cl"
class 1

Test call, this compound: "CCC(C)(c1ccc(O)cc1)c1ccc(O)cc1"
class 1

Test call, this compound: "Cc1cc(O)ccc1Cl"
class 0

Test call, this compound: "CN(C)CCO"
class 0

====

- Read-out: Apoptosis regulator Bcl-2 (Homo sapiens)
- Experiment description: LTEA_HepaRG_BCL2: Life Technologies and Expression Analysis (LTEA) Assay for Bcl-2 gene using HepaRG (AID 2283475);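 also: BCL2 transcript by TaqMan qRT-PCR normalised to ACTB GAPDH and POLR2A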
- Condition details: mRNA level, 48 h; actives raise or lower the signal
The source made the active and inactive calls. Rule for the calls: active = hit-call score of the fitted dose curve at least 0.9, where 1 is the maximum; inactive = score below 0.9.
Measured quantity: AC50

{"columns": ["Compound", "Endpoint value"],
 "data": [
  ["CCCN(CCC)N=O", "inactive"],
  ["C=CC(N)=O", "inactive"],
  ["CO/C=C(/C(=O)OC)c1ccccc1COc1cccc(C(F)(F)F)n1", "9.33 µM (active)"],
  ["Cc1ccccc1[N+](=O)[O-]", "inactive"],
  ["Oc1ccc(C(c2ccc(O)cc2)(C(F)(F)F)C(F)(F)F)cc1", "inactive"],
  ["CN(C)c1nc(=O)n(C2CCCCC2)c(=O)n1C", "inactive"],
  ["CCCCCCOC(=O)c1ccccc1C(=O)OCCCCCC", "inactive"],
  ["CCOC(=O)C(O)(c1ccc(Cl)cc1)c1ccc(Cl)cc1", "inactive"],
  ["Nn1cnnc1", "inactive"],
  ["CCOCCOC(C)=O", "inactive"]
]}

// AC50 lookup, key: "CN(C)CCO"
inactive

// AC50 lookup, key: "CC(C)(c1ccccc1)c1ccc(O)cc1"
inactive

// AC50 lookup, key: "Cc1cccc([N+](=O)[O-])c1"
inactive

// AC50 lookup, key: "CC#Cc1cc(C)nc(Nc2ccccc2)n1"
inactive

// AC50 lookup, key: "O=S(=O)(O)C(F)(F)C(F)(F)C(F)(F)C(F)(F)F"
inactive

// AC50 lookup, key: "Cc1ccc(O)c(C)c1"
inactive

====

- Experiment description: BSK_4H_SRB: Viability Assessment in the BioMAP Diversity Plus: 4H Assay (AID 2283027);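 also: cells exposed to compound for 24 h before staining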
- Condition details: primary human endothelial cells (HUVEC)
- Protocol: BSK_4H is a cell-based, multiplexed-readout assay that uses umbilical vein endothelium, a human vascular primary cell, with measurements taken at 24 hours after chemical dosing in a 96-well plate.BSK_4H_SRB is an assay component measured in the BSK_4H assay. It measures […] related to cell death using Sulforhodamine staining technology.Data from the assay component BSK_4H_SRB was analyzed into 1 assay endpoint. […]
The source made the active and inactive calls. How the source made its calls: active means hit-call score of the fitted dose curve at least 0.9, where 1 is the maximum; inactive means score below 0.9.
Answer with one of the outcomes yes (1) = active, no (0) = inactive

{"columns": ["Compound", "Answer label"],
 "data": [
  ["CC(C)C(=O)OCC(C)(C)C(OC(=O)C(C)C)C(C)C (configuration not stated)", "no (0)"],
  ["CCOCCOC(C)=O", "no (0)"],
  ["ClC1=C(Cl)[C@]2(Cl)[C@@H]3[C@H]4C[C@H]([C@@H]5O[C@H]45)[C@@H]3[C@@]1(Cl)C2(Cl)Cl", "yes (1)"],
  ["CCOC(=O)C(O)(c1ccc(Cl)cc1)c1ccc(Cl)cc1", "yes (1)"],
  ["Cc1cc2c3c(c1)C(c1ccccc1)=N[C@@H](NC(=O)c1ccncc1)C(=O)N3CC2", "no (0)"]
]}

Test call, this compound: C1CC2OC2CC1C1CO1 (configuration not stated)
no (0)

Test call, this compound: "CCCN(CCC)N=O"
no (0)

Test call, this compound: "Oc1ccc(Cl)cc1Cl"
no (0)

Test call, this compound: "CCSC(=O)N(CC)C1CCCCC1"
no (0)

Test call, this compound: "COS(=O)(=O)OC"
no (0)

Test call, this compound: "CC1=C2C[C@H]3[C@@H](CC=C4C[C@@H](O)CC[C@@]43C)[C@@H]2CC[C@]12O[C@@H]1C[C@H](C)CN[C@H]1[C@H]2C"
no (0)

Test call, this compound: "C=CC(=O)NCNC(=O)C=C"
no (0)

====

- Read-out: Thrombomodulin, THBD (gene 7056)
- Experiment description: BSK_CASM3C_Thrombomodulin: BioMAP Diversity Plus: CASM3C Assay for Thrombomodulin Biomarker Activity (AID 2283051);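 also: thrombomodulin protein level measured by ELISA 24 h after dosing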
- Condition details: primary human coronary artery smooth muscle cells; actives raise or lower the signal
The source made the active and inactive calls. How the source made its calls: active means hit-call score of the fitted dose curve at least 0.9, where 1 is the maximum; inactive means score below 0.9.
Answer with one of the outcomes t = active, f = inactive

Take a look at these entries with their results.
{"columns": ["Molecule", "Answer label"],
 "data": [
  ["CCCCCCOC(=O)c1ccccc1C(=O)OCCCCCC", "t"],
  ["O=C(O)C(F)(F)C(F)(F)C(F)(F)C(F)(F)C(F)(F)F", "f"],
  ["ClC1=C(Cl)[C@]2(Cl)[C@@H]3[C@@H](Cl)[C@H]4O[C@H]4[C@@H]3C1(Cl)C2(Cl)Cl", "f"],
  ["CC(C)(O)C(=O)Nc1ccc([N+](=O)[O-])c(C(F)(F)F)c1", "f"],
  ["Cc1ccccc1[N+](=O)[O-]", "f"],
  ["c1cc2ccc3cccc4ccc(c1)c2c34", "f"],
  ["O=C(NC(=O)c1cc(F)c(F)cc1Cl)Nc1cc(F)ccc1N1CCC(C(=O)O)CC1", "f"],
  ["Nn1cnnc1", "f"]
]}

Test call, this molecule: "C[C@]12CCC(=O)C=C1CC[C@@H]1[C@@H]2CC[C@]2(C)C(=O)CC[C@@H]12"
f

Test call, this molecule: Clc1ccc(C(c2ccccc2Cl)C(Cl)(Cl)Cl)cc1 (configuration not stated)
t

Test call, this molecule: "Cc1cccc([N+](=O)[O-])c1"
f

Test call, this molecule: "Oc1ccc(Cl)cc1Cl"
f
